Reference source for all entries: patent US20230365642A1

Target: T1, IL13Rα2 Protein, Human, Recombinant, His Tag (human, UniProt Q14627 27-343)
T1 chain: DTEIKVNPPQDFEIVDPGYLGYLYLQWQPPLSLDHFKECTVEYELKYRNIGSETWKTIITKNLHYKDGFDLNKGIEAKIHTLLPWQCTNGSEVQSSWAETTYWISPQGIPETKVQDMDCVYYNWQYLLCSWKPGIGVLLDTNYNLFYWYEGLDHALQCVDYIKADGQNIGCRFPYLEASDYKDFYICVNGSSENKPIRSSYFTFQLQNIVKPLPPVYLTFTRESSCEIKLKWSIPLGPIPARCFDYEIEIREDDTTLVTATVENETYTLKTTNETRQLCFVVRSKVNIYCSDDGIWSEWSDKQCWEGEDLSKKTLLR
Experiment: SPR; kinetic
OBSERVATION TYPE: Kd (nM)

(A) D7 (protein) PGPVPPSTAARELIEELFNITQNQKAPLCNGSMVWSINLTAGMYCAALESLINVSGCSAIEKTQRMLSGFCPHKVSAGQFSSLHVKKTRIEVAQFVKDLLIHLRKLFKEGQFN
(B) A11 (protein) PGPVPPSTAVRELIEELINITQNQKAPLCNGSMVWSINLTAGMYCAALESLINVSGCSAIEKTQRMLSGFCPHKVSAGQFSSLHVRSSKIEVAQFVKDLLFHLRTLFREGQFN
Inquiry: Given A and given B , which shows the smaller recorded Kd? Answer by quoting the chosen item's label.
Reply text: A
